# maps each entry to its growth inhibition
- assay.info: NCI Yeast Anticancer Drug Screen. Data for the cln2 rad14 strain (AID 165);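 also: 0% = growth equal to vehicle treated cultures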
- assay.conditions: S. cerevisiae cln2 rad14 strain, hits give high values; at 50.0 µM unless noted
About 79,000 compounds went through this panel and 15% of them were active in at least one assay; those are over-represented in the sample as a whole.
Kindly provide the numeric value in % only, without the unit symbol.

Solved entries (count: 10):
>  <molecule>
CCCC(=O)NC1CCc2cc(OC)c(OC)c(OC)c2-c2ccc(OC)c(=O)cc21 (stereo unspecified)

>  <measured.endpoint>
growth inhibition

>  <endpoint.value>
-0.9

$$$$
>  <molecule>
CC(=O)c1cccc(NC(=O)Oc2cc(=O)oc3ccccc23)c1

>  <measured.endpoint>
growth inhibition

>  <endpoint.value>
-4.6

$$$$
>  <molecule>
CCOC(=O)c1c(-c2ccc([N+](=O)[O-])cc2)c(C=O)n(-c2ccccc2)c1C

>  <measured.endpoint>
growth inhibition

>  <endpoint.value>
-21.8

$$$$
>  <molecule>
CC(=O)Nc1ccc(S(=O)(=O)NC(C)=O)cc1

>  <measured.endpoint>
growth inhibition

>  <endpoint.value>
-20.4

$$$$
>  <molecule>
CN(C)c1ccc(C=Nc2c(N)n(C)c(=O)n(C)c2=O)cc1

>  <measured.endpoint>
growth inhibition

>  <endpoint.value>
-32.7

$$$$
>  <molecule>
CC1=NN(C(=O)Nc2ccc(Cl)cc2)C(=O)C2CCC(=O)N12 (stereo unspecified)

>  <measured.endpoint>
growth inhibition

>  <endpoint.value>
2.7

$$$$
>  <molecule>
CC(=O)NC1=NC(=O)/C(=C/c2ccc3c(c2)OCO3)N1C

>  <measured.endpoint>
growth inhibition

>  <endpoint.value>
3

$$$$
>  <molecule>
Cc1cc(CSC(=N)N)c(CSC(=N)N)cc1C

>  <measured.endpoint>
growth inhibition

>  <endpoint.value>
-4.25

$$$$
>  <molecule>
NCC(=O)c1ccc(CCC(=O)O)cc1

>  <measured.endpoint>
growth inhibition

>  <endpoint.value>
0.25

$$$$
>  <molecule>
O=[n+]1c2c(n([O-])c3ccccc31)CCCCCCCCCC2

>  <measured.endpoint>
growth inhibition

>  <endpoint.value>
-35.2

$$$$

Kindly review the next molecule as well.
Which growth inhibition is listed for "NC(=S)C(=S)N=Cc1c(O)c2ccccc2oc1=O" ?
18.9

###

Examples of molecules with documented growth inhibition follow.
- assay.info: NCI Yeast Anticancer Drug Screen. Data for the mec2-1 strain (AID 157)
- assay.conditions: S. cerevisiae mec2-1 strain, hits give high values; at 50.0 µM unless noted
About 79,000 compounds went through this panel and 15% of them were active in at least one assay; those are over-represented in the sample as a whole.
# unit: % | format: bare number

>  <molecule>
Nc1nnc2nc(CC(=O)c3cccc([N+](=O)[O-])c3)/c(=C/C(=O)c3cccc([N+](=O)[O-])c3)n12

>  <growth inhibition, %>
18.7

$$$$
>  <molecule>
CCOC(=O)c1ccc(N)nc1

>  <growth inhibition, %>
-3.3

$$$$
>  <molecule>
CC(C)(C)C(=O)/C(=C/C(=O)O)C(C)(C)C

>  <growth inhibition, %>
10.7

$$$$

growth inhibition lookup needed for "CCOC(=O)/C(=N/Nc1ccc(Cl)cc1)N1C(=S)C=C(C)NN(C)C1=S" , thanks.
-13.4

# get_value(readout='growth inhibition', item= CC1CN(S(=O)(=O)c2ccccc2)CCN1S(=O)(=O)c1ccccc1 (configuration not stated) )
-4.3

Recorded growth inhibition for "CN(C)c1ccc(/C=C(\C#N)c2ccc(F)cc2)cc1" , please?
-1.8

Quick check: growth inhibition of CCOC(=O)c1cc(C(O)C(O)C(O)CO)oc1C (configuration not stated) ?
2.1

Give the measured growth inhibition of "O=C(NCCS)C(=O)NCCS" .
7.9

Return reported growth inhibition; argument: C=C1CC(COc2ccc3c(C)c(C)c(=O)oc3c2C)(c2ccccc2)OC1=O (configuration not stated)
-3.75

Please report the recorded growth inhibition for CCOC(=O)C(Cc1ccccc1)NC(=O)c1ccc(N=NN(C)C)cc1 (configuration not stated) .
-31.7

###

- assay.info: NCI Yeast Anticancer Drug Screen. Data for the rad50 strain (AID 155);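 also: 0% = growth of vehicle-only cultures of the same strain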
- assay.conditions: S. cerevisiae rad50 strain growth inhibition; at 50.0 µM unless noted
This is part of a sample that, as a whole, favours compounds with a hit. Of some 79,000 tested, about 15% had one in any assay. Calls of active or inactive are those of the source. Rule as the data show it: active = growth inhibition above about 70%; inactive = the rest.
I would appreciate it if you answered using one of these outcomes: active, inactive

Look over these answered cases.
>  <compound>
O=C(NCC1CC1)c1cccs1

>  <class.label>
inactive

$$$$
>  <compound>
CC1C=NNC1=O (stereo unspecified)

>  <class.label>
inactive

$$$$

Entry "NNC(=O)c1nnn(CCc2ccccc2)c1C(=O)NN" : call = ?
inactive

Outcome? "CCOC(=O)CSc1nc(-c2ccccc2)c(C#N)c(=O)[nH]1"
inactive

# outcome recorded in this test, key = "COc1cc(NC(C)=O)c2c(c1)SCC(=O)N2"
inactive

Entry Cc1ccc(N2C(=O)CC(N3CCCCC3)C2=O)cc1 (stereo unspecified) : call = ?
inactive

Hi, sorry to bother you, what did the test record for COc1ccc(NC2Oc3cc4c(cc3C(c3cc(OC)c(O)c(OC)c3)C2C)OCO4)cc1 (stereo unspecified) ?
inactive

In this assay, the call recorded for CC1OCC(O)C(C(O)C(=O)CN(Cc2ccccc2)Cc2ccccc2)O1 (stereo unspecified) was what?
inactive

What is the recorded call for this compound in the test? CCSC1C(O)C(CO)OC1n1cnc2c(=S)nc[nH]c21 (stereo unspecified)
inactive

Which outcome was entered for the compound N#CC(C(=O)CCC(=O)C(C#N)c1ccccc1)c1ccccc1 (stereo unspecified) in this test?
inactive

Dear all, I need the recorded test outcome for "COc1cc(OC)c(-c2nc3ccccc3c(=O)o2)cc1OC" , thank you.
inactive

Answer briefly: the call reported for "O=P(O)(O)OP(=O)(O)O" in this assay.
inactive

###

- assay.info: NCI Yeast Anticancer Drug Screen. Data for the cln2 rad14 strain (AID 165);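 also: 0% = growth equal to vehicle treated cultures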
- assay.conditions: S. cerevisiae cln2 rad14 strain, hits give high values; at 50.0 µM unless noted
The panel holds about 79,000 compounds, 15% with a hit somewhere; the sample as a whole holds those more often.
measured.endpoint: growth inhibition (%)
Just the number please, in %, no unit attached.

Field: example entries. Status: answers known.
>  <compound>
O=C1c2cccc3c([N+](=O)[O-])ccc(c23)C(=O)N1Cc1cccnc1

>  <measured.endpoint>
growth inhibition

>  <value.units>
%

>  <endpoint.value>
99.3

$$$$
>  <compound>
O=CC(NC(=O)N(CCCl)N=O)C(O)C(O)C(O)CO (stereo not drawn)

>  <measured.endpoint>
growth inhibition

>  <value.units>
%

>  <endpoint.value>
-1.7

$$$$
>  <compound>
CN(Cc1cc(Br)cc(Br)c1O)Cc1c(O)ccc2ccccc12

>  <measured.endpoint>
growth inhibition

>  <value.units>
%

>  <endpoint.value>
97.3

$$$$

// query growth inhibition value for entry NC(=O)C(NCc1ccccc1)c1ccccc1 (stereo not drawn)
12.5

Can you share its growth inhibition? I mean this compound: "Cn1c2ccccc2c2c3c(ccc21)C(=O)N(c1ccccc1)C3=O"
-3.5

Tell me the measured growth inhibition of O=C1OC(c2ccccc2)=C2CCC3CCCCN1C23 (stereo not drawn) , please.
23.4

Record request: growth inhibition value, item "CCCCCCCCCCCCCCCCCc1c(Cl)c(Cl)c(Cl)c(Cl)c1Cl"
-45.1

Which measured growth inhibition value corresponds to CC1COC(C)(C)P(=O)(c2ccccc2)C1 (stereo not drawn) ?
16.2

Need growth inhibition of "O=C1C(=O)c2ccccc2C(O)=C1C1CCCCC1" , thanks.
5.55

Data request, read-out growth inhibition, for "CCCCCN=C(N)C(N)=NCCCCC"
-31.1

Which growth inhibition value belongs to CC1=C2CC(C)(C)CC(=O)C2(C)CCC1=O (stereo not drawn) ?
25.6

Which growth inhibition reading was recorded for the compound "C=C1CCCC(C)(C)[C@@H]1CC/C(C)=C/Cn1c2cccc(=O)c-2nc2ccccc21" ?
2.4

What value of measured growth inhibition is listed for "Cc1cc(C)nc(NS(=O)(=O)c2ccc(Nc3c4ccccc4nc4c(C(=O)Nc5ccc(S(=O)(=O)Nc6cc(C)on6)cc5)ccc(Cl)c34)cc2)n1" ?
42.2

Please report the recorded growth inhibition for Cc1nn(C(C)C(=O)N(C)C)c(Br)c1Br (stereo not drawn) .
-30.4

Which growth inhibition is reported for this compound? "Nc1cccc(B(O)O)c1"
-5.75

Which measured growth inhibition value corresponds to Cc1ccc(OCC(=O)N2N=C(c3ccccc3)CC2(O)c2ccccc2)cc1 (stereo not drawn) ?
-15.6

Suppose we examine the compound O=C(O)C1CC1c1ccc2c(c1)OCO2 (stereo not drawn) ; what growth inhibition value has been reported?
-34

###

- assay.info: NCI Yeast Anticancer Drug Screen. Data for the mec2-1 strain (AID 157)
- assay.conditions: S. cerevisiae mec2-1 strain, hits give high values; at 50.0 µM unless noted
About 79,000 compounds went through this panel and 15% of them were active in at least one assay; those are over-represented in the sample as a whole.
measured.endpoint: growth inhibition (%)
Express your answer in %, writing the number without its unit.

Worked cases, answers included:
>  <molecule>
CCCCOC(=O)COCC(=O)OC(C)C(=O)OCCCC (stereo not given)

>  <endpoint.value>
13.1

$$$$
>  <molecule>
O=c1c2ccccc2c(=O)c2c1c1c(=O)c3ccccc3c(=O)c1c1c(=O)c3ccccc3c(=O)c21

>  <endpoint.value>
9.65

$$$$
>  <molecule>
C/C=C/C(=O)Nc1cccc(OC(=O)NC(C)(C)C)c1

>  <endpoint.value>
13.1

$$$$
>  <molecule>
CC(C)COC(c1ccc2c(c1)OCO2)C(C)Br (stereo not given)

>  <endpoint.value>
39.5

$$$$
>  <molecule>
O=C(N/N=C/c1ccc(Cl)cc1)c1cccc([N+](=O)[O-])c1

>  <endpoint.value>
7.7

$$$$

Suppose we examine the molecule "CC(=O)NNc1nc(C)c(C(/C=C/c2ccc(Cl)cc2)=N/NC(=O)C[N+](C)(C)C)s1" ; what growth inhibition value has been reported?
7.25

Need growth inhibition of "Cc1ccc2oc3c(ccc(=O)n3C)c(=O)c2c1" , thanks.
7.1

// growth inhibition lookup, key: "O=C(O)c1ccc(/C=N/N=C2c3ccccc3-c3ccccc32)cc1"
35.5

Dear colleague, I am looking for the recorded growth inhibition of the following molecule: "CC(=O)Nc1cc(C(=O)Nc2cc(C(=O)Nc3cc(C(=O)Nc4cc(C(=O)Nc5cc(C(=O)NCCC(=O)NCCCN(C)C)n(C)c5)n(C)c4)n(C)c3)n(C)c2)n(C)c1"
-41.5

Record request: growth inhibition value, item "CCCCCCCOC(=O)CO"
6.65
